This section presents compounds with their documented GI50 values.
tested on: TK-10; assay: NCI tumour cell line growth inhibition, 48 h
Activity calls are given as the source filed them. Rule as the data show it: active = GI50 up to about 1.1 µM and inactive = higher.

COMPOUND: c1ccc(C2CC(N3CCOCC3)=Nc3ccccc3N2)cc1 (configuration not stated)
EXPERIMENTAL_TARGET: TK-10
MEASURED_PROPERTY: GI50
RESULT: > 100 µM (inactive)
--
COMPOUND: Cc1cccc(/C=C2\CCCc3ccccc3C2=O)c1
EXPERIMENTAL_TARGET: TK-10
MEASURED_PROPERTY: GI50
RESULT: 27.4 µM (inactive)
--
COMPOUND: CC(=O)C1=C(C)N(c2ccc(C)cc2)C2(O)C=CC(=O)C3C(=O)N(c4ccccc4)C(=O)C132 (configuration not stated)
EXPERIMENTAL_TARGET: TK-10
MEASURED_PROPERTY: GI50
RESULT: 18.4 µM (inactive)
--
COMPOUND: Cc1ccc(N2C(=O)/C(=C/c3ccc(N(CCC#N)CCC#N)cc3C)N=C2c2cc([N+](=O)[O-])ccc2Cl)cc1
EXPERIMENTAL_TARGET: TK-10
MEASURED_PROPERTY: GI50
RESULT: > 100 µM (inactive)
--
COMPOUND: CN1CCN(C(=S)N2CCN(C)CC2)CC1
EXPERIMENTAL_TARGET: TK-10
MEASURED_PROPERTY: GI50
RESULT: > 19.7 µM (inactive)

Give the measured GI50 for "O=C(O)c1cc2ccccc2oc1=O"
> 100 µM (inactive)

Return the recorded GI50 value; entry: "COC(=O)c1cc(OC)c(OC)c(OC)c1-c1cc2c(cc1C=O)OCO2"
> 10 µM (inactive)

----------
system: NCI-H460; assay: NCI tumour cell line growth inhibition, 48 h
The source made the active and inactive calls. Cut-off read from the data, not from the text of the source: active = GI50 up to about 1.1 µM and inactive = higher.
MEASURED_PROPERTY: GI50

COMPOUND: CN(C)/N=N/c1nc2c(c(=O)n(C)c(=O)n2C)n1C
GI50: > 100 µM (inactive)
//
COMPOUND: CCOC(=O)Cc1nc2ccccc2s1
GI50: 20.4 µM (inactive)
//
COMPOUND: CN1C(c2ccccc2)CC(O)CC1c1ccccc1 (stereo not drawn)
GI50: > 100 µM (inactive)
//
COMPOUND: CCCCCCCCCC1(N=[N+]=[N-])C(=O)c2ccccc2N(C)C1=O (stereo not drawn)
GI50: 37.2 µM (inactive)
//
COMPOUND: N=C(N)SCc1ccc2c(c1)S(=O)(=O)c1ccccc1O2
GI50: 19.6 µM (inactive)

Answer with the recorded GI50 of "Cc1cc(S(=O)(=O)Nc2nc3cscc3c(=O)n2N)c(S)cc1Cl" only.
28 µM (inactive)

Quote GI50 reported for "CCOP(=Nc1ccc(N(C)C)cc1)(OCC)OCC" please.
> 100 µM (inactive)

# return recorded GI50 for input "CCOC(=O)c1cccc(NC(=O)CCl)c1"
1.19 µM (inactive)

# return recorded GI50 for input "CO/N=C\c1ccc2c(c1)Sc1ccccc1O2"
40.2 µM (inactive)

Consider the compound COCOC1/C=C/CCCC#C[C@H](C)C(=O)CC1 (stereo partly drawn) . State its measured GI50.
8.73 µM (inactive)

Supply measured GI50 of CCOC(=O)C1=C(C)N(C)C23OC4(C(=O)OC)CC2c2ccccc2C1N3C4=O (stereo not drawn) in your reply.
20 µM (inactive)

// Input: "CN(O)C(=O)CCCC(=O)NCC(C)(C)CNC(=O)CCCC(=O)N(C)O" . Output its GI50 only.
> 100 µM (inactive)

Kindly indicate its recorded GI50. Item: "O=c1ccccc2cccc(O)c12"
> 100 µM (inactive)
